target: Proto-oncogene tyrosine-protein kinase receptor Ret (Homo sapiens, UniProt P07949, V804M); test: Inhibition of RET V804M mutant (unknown origin)
Sequence (P07949 29-1114 V804M limits assumed): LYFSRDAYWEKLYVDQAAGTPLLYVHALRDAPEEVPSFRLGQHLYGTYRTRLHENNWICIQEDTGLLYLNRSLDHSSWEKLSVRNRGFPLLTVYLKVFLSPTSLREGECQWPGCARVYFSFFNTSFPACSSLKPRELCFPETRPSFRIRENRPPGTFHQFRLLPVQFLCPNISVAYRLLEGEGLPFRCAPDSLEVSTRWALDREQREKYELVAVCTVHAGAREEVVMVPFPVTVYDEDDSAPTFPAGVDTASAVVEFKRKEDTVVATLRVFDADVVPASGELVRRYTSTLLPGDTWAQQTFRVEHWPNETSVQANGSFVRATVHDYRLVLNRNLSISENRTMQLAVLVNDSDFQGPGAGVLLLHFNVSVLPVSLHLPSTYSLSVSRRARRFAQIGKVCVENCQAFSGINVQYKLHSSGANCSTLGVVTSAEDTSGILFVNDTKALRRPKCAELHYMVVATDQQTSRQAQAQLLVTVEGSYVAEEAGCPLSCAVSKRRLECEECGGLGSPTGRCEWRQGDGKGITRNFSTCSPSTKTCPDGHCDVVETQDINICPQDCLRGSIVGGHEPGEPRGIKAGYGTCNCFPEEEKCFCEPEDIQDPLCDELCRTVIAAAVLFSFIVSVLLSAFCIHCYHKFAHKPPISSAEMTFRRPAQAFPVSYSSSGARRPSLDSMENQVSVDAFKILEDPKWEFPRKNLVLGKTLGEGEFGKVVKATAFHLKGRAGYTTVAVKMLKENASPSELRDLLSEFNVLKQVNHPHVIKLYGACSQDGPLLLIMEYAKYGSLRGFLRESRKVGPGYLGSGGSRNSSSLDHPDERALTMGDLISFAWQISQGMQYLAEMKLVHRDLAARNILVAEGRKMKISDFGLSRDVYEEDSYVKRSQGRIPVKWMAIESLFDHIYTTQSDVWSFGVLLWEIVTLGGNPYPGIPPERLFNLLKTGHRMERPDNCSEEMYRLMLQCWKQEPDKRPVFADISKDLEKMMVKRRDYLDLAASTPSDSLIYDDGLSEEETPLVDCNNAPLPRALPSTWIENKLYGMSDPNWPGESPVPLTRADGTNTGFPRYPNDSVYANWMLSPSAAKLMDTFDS
measurement_kind: IC50 (nM)
Value expressed in nM; do not type the unit.

Please give the measured IC50 for this compound: `Cc1cc(Nc2cc(C)[nH]n2)nc(N2CCC3(CC2)OCCN([C@@H](C)c2ccc(-n4cc(F)cn4)nc2)C3=O)n1` 1.97

###

assay: Volume of distribution in mouse; assay type: ADME, organism-based; conditions: in vivo
Measured Vd accompanies every entry in the list below.
Could you kindly put the unit after your number?

Cc1cc(Nc2cc(C)[nH]n2)nc(N2CCC3(CC2)OCCN([C@@H](C)c2ccc(-n4cc(F)cn4)nc2)C3=O)n1 ... 1.5 L/kg

# next compound below
Please give the measured Vd for this compound: CO[C@]1(C(=O)N[C@@H](C)c2ccc(-n3cc(F)cn3)nc2)CC[C@H](c2nc(C)cc(Nc3cc(C)[nH]n3)n2)CC1 [PRALSETINIB] 0.7 L/kg

###

assay: Intrinsic clearance in mouse liver microsomes; format: ADME, Microsome; details: read-out: CLH
measurement_kind: CLint scaled (mL/min/kg)
Value expressed in mL/min/kg; do not type the unit.

Cc1cc(Nc2cc(C)[nH]n2)nc(N2CCC3(CC2)OCCN([C@@H](C)c2ccc(-n4cc(F)cn4)nc2)C3=O)n1 ... 79

Please give the measured CLint scaled for this compound: `Cc1cc(Nc2cc(C)[nH]n2)nc(N2CCC3(CCCN([C@@H](C)c4ccc(-n5cc(F)cn5)nc4)C3=O)CC2)n1` 155

Same lookup for `Cc1cc(Nc2cc(C)[nH]n2)nc(N2CCC3(CCCN([C@@H](C)c4cnc(-n5cc(F)cn5)cn4)C3=O)CC2)n1` , please. 136

###

assay: AUC in mouse plasma at 10 mg/kg, po; type: ADME, organism-based; design: dose 10 mg/kg
Measured AUC accompanies every entry in the list below.
Value expressed in µM·h; do not type the unit.

Please give the measured AUC for this molecule: `CO[C@]1(C(=O)N[C@@H](C)c2ccc(-n3cc(F)cn3)nc2)CC[C@H](c2nc(C)cc(Nc3cc(C)[nH]n3)n2)CC1` 46.1

Same lookup for `Cc1cc(Nc2cc(C)[nH]n2)nc(N2CCC3(CC2)OCCN([C@@H](C)c2ccc(-n4cc(F)cn4)nc2)C3=O)n1` , please. 27.7

###

biological target: Receptor-type tyrosine-protein kinase FLT3 (Homo sapiens, UniProt P36888)
Sequence (P36888 whole entry): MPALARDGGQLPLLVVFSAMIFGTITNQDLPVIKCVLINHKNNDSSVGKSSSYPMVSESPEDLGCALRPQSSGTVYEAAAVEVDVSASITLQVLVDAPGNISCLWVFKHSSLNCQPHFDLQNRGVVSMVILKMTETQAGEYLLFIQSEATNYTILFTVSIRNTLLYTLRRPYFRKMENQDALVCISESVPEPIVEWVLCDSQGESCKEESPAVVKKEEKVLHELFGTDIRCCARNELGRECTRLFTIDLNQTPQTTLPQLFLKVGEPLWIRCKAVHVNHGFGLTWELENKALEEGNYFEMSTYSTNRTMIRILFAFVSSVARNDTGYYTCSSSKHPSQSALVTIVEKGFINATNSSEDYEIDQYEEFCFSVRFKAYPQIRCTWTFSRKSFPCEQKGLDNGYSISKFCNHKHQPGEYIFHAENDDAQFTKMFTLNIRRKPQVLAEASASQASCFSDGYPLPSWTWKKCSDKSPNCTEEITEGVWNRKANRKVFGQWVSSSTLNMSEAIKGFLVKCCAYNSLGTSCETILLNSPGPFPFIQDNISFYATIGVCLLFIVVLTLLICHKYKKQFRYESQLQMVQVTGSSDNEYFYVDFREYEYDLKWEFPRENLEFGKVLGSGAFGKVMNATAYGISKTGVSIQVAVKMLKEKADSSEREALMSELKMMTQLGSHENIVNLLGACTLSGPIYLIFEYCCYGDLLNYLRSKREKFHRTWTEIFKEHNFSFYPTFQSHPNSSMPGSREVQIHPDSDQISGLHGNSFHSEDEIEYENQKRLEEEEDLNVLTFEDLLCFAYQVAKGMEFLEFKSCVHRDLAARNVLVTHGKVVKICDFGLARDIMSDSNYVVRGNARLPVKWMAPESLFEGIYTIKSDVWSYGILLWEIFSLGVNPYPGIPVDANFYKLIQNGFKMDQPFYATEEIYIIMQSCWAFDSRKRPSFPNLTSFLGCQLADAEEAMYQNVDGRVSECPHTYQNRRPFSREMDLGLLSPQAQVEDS
measurement_kind: pIC50
Friendly reminder that pIC50 comes from taking -log10 of the concentration in mol/L.

Please give the measured pIC50 for this compound: `CO[C@]1(C(=O)N[C@@H](C)c2ccc(-n3cc(F)cn3)nc2)CC[C@H](c2nc(C)cc(Nc3cc(C)[nH]n3)n2)CC1` 8.19

###

test: Intrinsic clearance in human liver microsomes; format: ADME, Microsome; details: read-out: CLH
measurement_kind: CLint scaled (mL/min/kg)
Value expressed in mL/min/kg; do not type the unit.

Answered examples (2):
Cc1cc(Nc2cc(C)[nH]n2)nc(N2CCC3(CCCN([C@@H](C)c4ccc(-n5cc(F)cn5)nc4)C3=O)CC2)n1 ... 36.4
Cc1cc(Nc2cc(C)[nH]n2)nc(N2CCC3(CCCN([C@@H](C)c4cnc(-n5cc(F)cn5)cn4)C3=O)CC2)n1 ... 31.3

# next molecule below
Please give the measured CLint scaled for this molecule: `Cc1cc(Nc2cc(C)[nH]n2)nc(N2CCC3(CC2)OCCN([C@@H](C)c2ccc(-n4cc(F)cn4)nc2)C3=O)n1` 24.1

###

assay: Drug level in plasma of mouse transplanted with mouse KIF5B-RET Ba/F3 cells at 10 mg/kg, po qd for 10 days measured after 8.5 hrs; type: ADME, organism-based, BaF3; conditions: time 10 day
Measured concentration at 240 h accompanies every entry in the list below.
Value expressed in µM; do not type the unit.

Cc1cc(Nc2cc(C)[nH]n2)nc(N2CCC3(CC2)OCCN([C@@H](C)c2ccc(-n4cc(F)cn4)nc2)C3=O)n1 ... 3.94

# next compound below
Please give the measured concentration at 240 h for this compound: CO[C@]1(C(=O)N[C@@H](C)c2ccc(-n3cc(F)cn3)nc2)CC[C@H](c2nc(C)cc(Nc3cc(C)[nH]n3)n2)CC1 [PRALSETINIB] 6.32

These measurements were taken from ChEMBL document CHEMBL4834457.
